Biological target: T1, His-human LIGHT (human)
T1 construct: also called His-huLIGHT; free LIGHT
T1 chain: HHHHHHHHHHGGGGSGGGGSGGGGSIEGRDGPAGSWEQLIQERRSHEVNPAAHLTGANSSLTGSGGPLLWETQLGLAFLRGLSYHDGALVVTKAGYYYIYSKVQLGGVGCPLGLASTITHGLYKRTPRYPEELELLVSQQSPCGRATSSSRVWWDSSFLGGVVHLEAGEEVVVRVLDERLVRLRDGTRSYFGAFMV
Assay: ELISA, His-huLIGHT coated
Each entry below carries its reported pEC50.
Reminder that pEC50 is minus the log10 of a molar concentration.

Study these solved cases before continuing.
Q. For the binder shown here, hum_LT-m58-4 (antibody, human IgG4, V domains shown, humanized from LT-m58) VH: QVQLVQSGAEVKKPGASVKVSCKASGYTFIDHIMNWVRKAPGQGLEWMGRIYPVSGETNYNQKFMGRATFTVDRSTSTVYMELSSLRSEDTAVYYCGRGSYYWNAMDYWGQGTLVTVSS VL: EIVMTQSPATLSVSPGERATLSCKASQSVDFDGESYMNWYQQKPGQPPRLLIYSASNLESGIPARFSGSGSGTEFTLTISSLQSEDFAVYYCQQSIEDPWTFGQGTKLEIK , give the reported pEC50.
A. 11.21

Q. For the binder shown here, hum_LT-m58-2 (antibody, human IgG4, V domains shown, humanized from LT-m58) VH: QVQLVQSGAEVKKPGASVKVSCKASGYTFIDHIMNWVRKAPGQGLEWIGRIYPVSGETNYNQKFMGRVTFTVDRSTSTVYMELSSLRSEDTAVYYCGRGSYYWNAMDYWGQGTLVTVSS VL: EIVMTQSPATLSVSPGERATLSCKASQSVDFDGDSYMNWYQQKPGQAPRLLIYSASNLESGIPARFSGSGSGTEFTLTISSLQSEDFAVYYCQQSIEDPWTFGQGTKVEIK , give the reported pEC50.
A. 10.81

***
Q. For the binder shown here, hum_LT-m58-3 (antibody, human IgG4, V domains shown, humanized from LT-m58) VH: QVQLVQSGAEVKKPGASVKVSCKASGYTFIDHIMNWVRKAPGQGLEWMGRIYPVSGETNYNQKFMGRATFTVDRSTSTVYMELSSLRSEDTAVYYCGRGSYYWNAMDYWGQGTLVTVSS VL: DIVMTQSPDSLAVSLGERATINCKASQSVDFDGDSYMNWYQQKPGQPPKLLIYSASNLESGVPDRFSGSGSGTDFTLTISSLQAEDVAVYYCQQSIEDPWTFGQGTKVEIK , give the reported pEC50.
A. 10.95
